Target: PARP2 FL wt (human (Homo sapiens), UniProt Q9UGN5 1-583)
Sequence (Q9UGN5 whole entry): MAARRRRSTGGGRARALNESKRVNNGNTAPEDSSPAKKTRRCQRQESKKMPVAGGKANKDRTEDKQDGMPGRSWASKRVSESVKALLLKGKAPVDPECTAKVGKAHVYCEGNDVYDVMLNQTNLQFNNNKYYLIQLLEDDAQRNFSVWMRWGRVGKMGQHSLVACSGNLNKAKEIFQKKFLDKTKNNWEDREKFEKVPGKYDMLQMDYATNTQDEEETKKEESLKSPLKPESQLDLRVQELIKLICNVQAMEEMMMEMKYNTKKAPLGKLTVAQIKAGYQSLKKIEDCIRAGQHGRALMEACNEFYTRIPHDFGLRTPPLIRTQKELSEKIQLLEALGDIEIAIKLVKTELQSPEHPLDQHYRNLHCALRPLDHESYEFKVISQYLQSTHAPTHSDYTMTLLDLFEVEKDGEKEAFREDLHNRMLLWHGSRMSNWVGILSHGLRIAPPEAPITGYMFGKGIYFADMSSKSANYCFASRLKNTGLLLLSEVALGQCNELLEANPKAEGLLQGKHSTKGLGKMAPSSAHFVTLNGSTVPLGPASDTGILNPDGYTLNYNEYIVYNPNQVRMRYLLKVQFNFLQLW
Assay: fluorescence polarization; mean and SD of 3 listed KDs (10.74, 7.933, 8.182); FP buffer, salt, pH and temperature not given (as in cited ref 17); crystallization: complex purified in 20 mM Hepes pH 7.5, 300 mM NaCl, 0.5 mM TCEP; crystals
Settings: protein: recombinant; tags: His-tag construct, TEV cleaved; label: fluorescein on internal T10; dumbbell of two hairpins (TTTT loops) with one nick
readout name: Kd (nM)
State the answer as a number, implicitly in nM.

Lab note: GGAAGTCTTTTGACTTCCTCGAAGCTTTTGCTTCGA (structured_DNA, 5'-phosphate) [DNA-8 nicked dumbbell] gave Kd of 8.95
